Quick list: self-cleavage kobs at 40 uM GlcN6P per entry.
B1: glmS ribozyme (parent)
chain: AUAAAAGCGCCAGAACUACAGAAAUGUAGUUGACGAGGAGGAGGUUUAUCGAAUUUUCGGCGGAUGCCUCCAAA

Variants of: B1
assay: self-cleavage kobs at 40 uM GlcN6P; higher = faster cleavage; RNA array
assay.setup: with glucosamine-6-phosphate
This sample holds only a part of the variants without activity.
Give a bare numeral; the unit s⁻¹ is implied.

A selection of reference data follows.
{"mutation.string": "G32C U65A C67A", "self-cleavage kobs at 40 uM GlcN6P, s⁻¹": 0.000151}
{"mutation.string": "G29U C67A", "self-cleavage kobs at 40 uM GlcN6P, s⁻¹": "5.58e-05"}
{"mutation.string": "G29A C71U", "self-cleavage kobs at 40 uM GlcN6P, s⁻¹": 0.000141}

Task: What measured self-cleavage kobs at 40 uM GlcN6P goes with U47G C71A ?
Result: 5.64e-05

Task: Would you mind telling me what self-cleavage kobs at 40 uM GlcN6P value was observed for G41U U54G ?
Result: 0.000133
